biological target: human ether-à-go-go-related gene (hERG) potassium channel (human, UniProt Q12809); assay: primary screen, population patch clamp on CHO cells stably expressing hERG; higher = less effect of the substance;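 also: peak tail current of the secondary pulse compared with the same well before compound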
Sequence (Q12809 whole entry, looked up): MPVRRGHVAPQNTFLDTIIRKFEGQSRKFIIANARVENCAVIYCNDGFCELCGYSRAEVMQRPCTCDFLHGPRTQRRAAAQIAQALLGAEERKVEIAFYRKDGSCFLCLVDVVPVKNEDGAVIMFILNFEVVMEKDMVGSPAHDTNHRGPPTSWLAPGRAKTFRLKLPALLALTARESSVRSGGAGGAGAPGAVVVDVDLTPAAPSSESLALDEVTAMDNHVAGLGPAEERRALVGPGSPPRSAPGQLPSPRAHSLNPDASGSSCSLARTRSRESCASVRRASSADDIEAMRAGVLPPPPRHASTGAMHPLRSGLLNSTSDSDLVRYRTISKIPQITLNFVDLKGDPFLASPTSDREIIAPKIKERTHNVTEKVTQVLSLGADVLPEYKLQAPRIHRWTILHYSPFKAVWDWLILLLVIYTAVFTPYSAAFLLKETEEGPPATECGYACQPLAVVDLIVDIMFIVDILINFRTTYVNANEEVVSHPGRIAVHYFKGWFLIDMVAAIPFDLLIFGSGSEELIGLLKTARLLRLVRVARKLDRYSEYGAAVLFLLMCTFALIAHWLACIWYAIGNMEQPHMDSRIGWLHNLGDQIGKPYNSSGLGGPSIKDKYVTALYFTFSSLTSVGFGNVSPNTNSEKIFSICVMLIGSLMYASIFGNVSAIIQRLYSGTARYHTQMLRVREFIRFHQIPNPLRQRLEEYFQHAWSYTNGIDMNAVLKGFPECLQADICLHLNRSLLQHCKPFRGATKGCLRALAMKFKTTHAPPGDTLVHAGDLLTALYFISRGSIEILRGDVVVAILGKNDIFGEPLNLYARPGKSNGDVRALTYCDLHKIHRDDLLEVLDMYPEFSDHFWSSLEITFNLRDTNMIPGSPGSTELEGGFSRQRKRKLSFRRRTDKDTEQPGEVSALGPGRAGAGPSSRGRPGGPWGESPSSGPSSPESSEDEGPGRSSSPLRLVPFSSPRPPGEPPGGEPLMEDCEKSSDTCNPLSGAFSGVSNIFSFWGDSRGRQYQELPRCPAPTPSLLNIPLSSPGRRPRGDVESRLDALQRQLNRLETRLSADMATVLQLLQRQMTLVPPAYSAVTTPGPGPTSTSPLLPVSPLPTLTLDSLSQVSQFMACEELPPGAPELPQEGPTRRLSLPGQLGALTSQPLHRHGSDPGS
Hit rate of the full screen: of about 310,000 compounds, about 14,000 (4.5%) showed an effect of 50% or more. Effects have a minus sign here. The full list was thinned out, with strong results kept by preference.
# Lookup of reported hERG current change (%, negative = inhibition) at 10uM keyed by entry
measured_attribute: hERG current change (%, negative = inhibition) at 10uM (%)

[
  {
    "compound": "Cc1cc(OCC(=O)NCCc2c[nH]c3ccccc23)c2c(C)c(C)c(=O)oc2c1",
    "tgt": "human ether-à-go-go-related gene (hERG) potassium channel (human, UniProt Q12809)",
    "reading_unit": "%",
    "readout_number": 3.37
  },
  {
    "compound": "Cc1ccc(C(=O)C2CCN(CC(=O)Nc3ccc(N(C)C)cc3)CC2)cc1",
    "tgt": "human ether-à-go-go-related gene (hERG) potassium channel (human, UniProt Q12809)",
    "reading_unit": "%",
    "readout_number": -36.4
  },
  {
    "compound": "CCOc1ccc(C(=O)Nc2ccccc2N2CCOCC2)cc1",
    "tgt": "human ether-à-go-go-related gene (hERG) potassium channel (human, UniProt Q12809)",
    "reading_unit": "%",
    "readout_number": -5.52
  },
  {
    "compound": "O=C(O)c1ccc(NS(=O)(=O)c2ccc3c(c2)OCCCO3)cc1",
    "tgt": "human ether-à-go-go-related gene (hERG) potassium channel (human, UniProt Q12809)",
    "reading_unit": "%",
    "readout_number": 4.23
  },
  {
    "compound": "CCOC(=O)c1c(NC(=O)COC(=O)Cc2n[nH]c(=O)c3ccccc23)sc(C(=O)N(C)C)c1C",
    "tgt": "human ether-à-go-go-related gene (hERG) potassium channel (human, UniProt Q12809)",
    "reading_unit": "%",
    "readout_number": -2.24
  },
  {
    "compound": "Cc1c(C(=O)/C=C/N(C)C)nnn1-c1ccc(F)c(Cl)c1",
    "tgt": "human ether-à-go-go-related gene (hERG) potassium channel (human, UniProt Q12809)",
    "reading_unit": "%",
    "readout_number": 2.73
  },
  {
    "compound": "CCNC(=S)NNC(=O)c1nn(C)c(C)c1Cl",
    "tgt": "human ether-à-go-go-related gene (hERG) potassium channel (human, UniProt Q12809)",
    "reading_unit": "%",
    "readout_number": 19
  },
  {
    "compound": "COc1ccc(NC(=S)NC(=O)/C=C/c2ccco2)cc1",
    "tgt": "human ether-à-go-go-related gene (hERG) potassium channel (human, UniProt Q12809)",
    "reading_unit": "%",
    "readout_number": -4.31
  },
  {
    "compound": "CCOc1ccc(C(=O)C2CCN(CC(=O)Nc3nccs3)CC2)cc1",
    "tgt": "human ether-à-go-go-related gene (hERG) potassium channel (human, UniProt Q12809)",
    "reading_unit": "%",
    "readout_number": -68.3
  },
  {
    "compound": "CSc1nc(-c2ccccc2)nc2c1COC(C)(C)C2",
    "tgt": "human ether-à-go-go-related gene (hERG) potassium channel (human, UniProt Q12809)",
    "reading_unit": "%",
    "readout_number": 5.03
  },
  {
    "compound": "CCOc1ccccc1NC(=O)CN1CCC(C(=O)c2ccc(OC)cc2)CC1",
    "tgt": "human ether-à-go-go-related gene (hERG) potassium channel (human, UniProt Q12809)",
    "reading_unit": "%",
    "readout_number": -65.9
  },
  {
    "compound": "CN(C)C(=O)CSc1nc(-c2ccccc2)nc2c1CCCC2",
    "tgt": "human ether-à-go-go-related gene (hERG) potassium channel (human, UniProt Q12809)",
    "reading_unit": "%",
    "readout_number": -5.09
  },
  {
    "compound": "CCN(Cc1ccncc1)C(=O)c1cc(COc2ccc(F)cc2Cl)on1",
    "tgt": "human ether-à-go-go-related gene (hERG) potassium channel (human, UniProt Q12809)",
    "reading_unit": "%",
    "readout_number": -44
  },
  {
    "compound": "O=C(NCCNc1nccc(C(F)(F)F)n1)c1cccc(C(F)(F)F)c1",
    "tgt": "human ether-à-go-go-related gene (hERG) potassium channel (human, UniProt Q12809)",
    "reading_unit": "%",
    "readout_number": -8.47
  },
  {
    "compound": "CCOc1ccc(C(=O)C2CCN(CC(=O)Nc3ccccc3N3CCOCC3)CC2)cc1",
    "tgt": "human ether-à-go-go-related gene (hERG) potassium channel (human, UniProt Q12809)",
    "reading_unit": "%",
    "readout_number": -53.6
  },
  {
    "compound": "Nc1n[nH]c(N)c1N=Nc1ccccc1",
    "tgt": "human ether-à-go-go-related gene (hERG) potassium channel (human, UniProt Q12809)",
    "reading_unit": "%",
    "readout_number": 16.7
  },
  {
    "compound": "COc1cccc(NC(=O)CN(C)C(=O)CSCc2nc3scc(-c4cccs4)c3c(=O)[nH]2)c1",
    "tgt": "human ether-à-go-go-related gene (hERG) potassium channel (human, UniProt Q12809)",
    "reading_unit": "%",
    "readout_number": -16.2
  },
  {
    "compound": "CC1(C)Cc2nc(-c3ccccc3)nc(SCC(O)CO)c2CO1 (stereo not shown)",
    "tgt": "human ether-à-go-go-related gene (hERG) potassium channel (human, UniProt Q12809)",
    "reading_unit": "%",
    "readout_number": -15.8
  },
  {
    "compound": "COc1ccccc1NC(=O)CCSc1nnc(-c2ccncc2)o1",
    "tgt": "human ether-à-go-go-related gene (hERG) potassium channel (human, UniProt Q12809)",
    "reading_unit": "%",
    "readout_number": -2.96
  },
  {
    "compound": "OCCSc1nc(-c2ccccc2)nc2c1CCC2",
    "tgt": "human ether-à-go-go-related gene (hERG) potassium channel (human, UniProt Q12809)",
    "reading_unit": "%",
    "readout_number": -12
  },
  {
    "compound": "O=C(Cn1c(NCCO)nc2ccccc21)NCCc1ccc(F)cc1",
    "tgt": "human ether-à-go-go-related gene (hERG) potassium channel (human, UniProt Q12809)",
    "reading_unit": "%",
    "readout_number": 10.6
  },
  {
    "compound": "COc1ccc(O)c2c(=O)c3c(OC)cc4c(c3oc12)C1C=COC1O4 (stereo not shown)",
    "tgt": "human ether-à-go-go-related gene (hERG) potassium channel (human, UniProt Q12809)",
    "reading_unit": "%",
    "readout_number": 4.03
  },
  {
    "compound": "Cc1ccc(NCN2C(=O)C3CC=CCC3C2=O)cc1 (stereo not shown)",
    "tgt": "human ether-à-go-go-related gene (hERG) potassium channel (human, UniProt Q12809)",
    "reading_unit": "%",
    "readout_number": 2.67
  },
  {
    "compound": "CC1CCN(CC(=O)Nc2nccs2)CC1",
    "tgt": "human ether-à-go-go-related gene (hERG) potassium channel (human, UniProt Q12809)",
    "reading_unit": "%",
    "readout_number": 13.6
  },
  {
    "compound": "COc1ccc(OCc2cc(C(=O)N(C)CC3CCCCO3)no2)c(Cl)c1 (stereo not shown)",
    "tgt": "human ether-à-go-go-related gene (hERG) potassium channel (human, UniProt Q12809)",
    "reading_unit": "%",
    "readout_number": -17.4
  }
]
